Where do the numbers come from? From patent US20220259593A1.

tested on: K562 CRISPRi cells; test: Perturb-seq pooled growth measurement (sgRNA counts, growth phenotype γ, relative activity); type: cell-based, human; conditions: sequencing read counts; 10 days of growth (day twelve after transduction)
# label = criterion met if Perturb-seq pooled growth sgRNA counts, d10 >= 6000 else criterion not met

SUBSTANCE: HSPE1_+_198365089.23-P1P2_14: sgRNA targeting HSPE1, GGAGACTCGCAGTCCTGCCC, SEQ ID NO: 68 (listed as DNA, chemistry not fully specified)
GROUP: criterion met
//
SUBSTANCE: MTOR_+_11322547.23-P1P2_07: sgRNA targeting MTOR, GGGCAGGGGGTCTGAAGCGG, SEQ ID NO: 147 (listed as DNA, chemistry not fully specified)
GROUP: criterion not met
//
SUBSTANCE: CAD_+_27440280.23-P1P2_13: sgRNA targeting CAD, GGCTGGAGAGAAGCCTGGCG, SEQ ID NO: 105 (listed as DNA, chemistry not fully specified)
GROUP: criterion met
//
SUBSTANCE: RPS15_−_1438413.23-P1P2_07: sgRNA targeting RPS15, GACCAAAGCGGTCTCTTCTG, SEQ ID NO: 61 (listed as DNA, chemistry not fully specified)
GROUP: criterion not met
//
SUBSTANCE: RPS15_−_1438413.23-P1P2_01: sgRNA targeting RPS15, GACCAAACCGATCTCTTCTG, SEQ ID NO: 64 (listed as DNA, chemistry not fully specified)
GROUP: criterion met
